# measurement-description: qHTS cell viability (CellTiter-Glo, 72 h; primary screen), control cell line
# Assay type: cell-based, mouse
# experimental-setup: mouse, NIH-3T3 cells; 3T3, Log (M) -4.33646; read-out: Percent viability

molecule: COCCn1c2c([n+](Cc3cnccn3)c1C)C(=O)c1ccccc1C2=O [sepantronium bromide, reference compound]
viability at 72 h, 46.1 µM: 20.8%

----------
# measurement-description: qHTS cell viability (CellTiter-Glo, 72 h; primary screen), control cell line
# Format: cell-based, human
# experimental-setup: human, HEK293T cells; HEK293T, Log (M) -9.10767; read-out: Percent viability
property: viability at 72 h, 0.78 nM

molecule: COCCn1c2c([n+](Cc3cnccn3)c1C)C(=O)c1ccccc1C2=O [sepantronium bromide, reference compound]
observed-measurement: 100%

----------
# Test system: MCC26 cells (VN-MCC)
# measurement-description: qHTS cell viability (CellTiter-Glo, 72 h; primary and follow-up small molecule screen)
# Type: cell-based, human
# experimental-setup: MCC26, 72h, Log (M) -8.67631

compound: CCn1cc(-c2ccnc3[nH]c(-c4cccc(CN(C)C)c4)cc23)c(-c2ccc(NC(=O)N(C)C)cc2)n1 [GSK-1070916A, reference compound]
Percent viability [%]: 92.5

compound: Cc1cc(Nc2cc(N3CCN(C)CC3)nc(Sc3ccc(NC(=O)C4CC4)cc3)n2)[nH]n1 [Tozasertib, reference compound]
Percent viability [%]: 96.9

compound: O=C(Nc1cccc(Cl)c1)Nc1ncc(CCNc2ncnc3ccsc23)s1 [SNS-314, reference compound]
Percent viability [%]: 99.1

compound: CCS(=O)(=O)c1cccc(-c2cc(C(=O)NC3CCN(C)CC3)c(C)c3[nH]c4ncc(C)cc4c23)c1 [TAK-901, reference compound]
Percent viability [%]: 96.2

----------
# Test system: WAGA cells (VP-MCC)
# measurement-description: qHTS cell viability (CellTiter-Glo, 72 h; primary and follow-up small molecule screen)
# Type: cell-based, human
# experimental-setup: WAGA, 72h, Log (M) -8.67631
property: Percent viability (%)

molecule: Cc1cc(Nc2cc(N3CCN(C)CC3)nc(Sc3ccc(NC(=O)C4CC4)cc3)n2)[nH]n1 [Tozasertib, reference compound]
property: Percent viability
observed-measurement: 105.4

molecule: CCn1cc(-c2ccnc3[nH]c(-c4cccc(CN(C)C)c4)cc23)c(-c2ccc(NC(=O)N(C)C)cc2)n1 [GSK-1070916A, reference compound]
property: Percent viability
observed-measurement: 104.6

molecule: CCS(=O)(=O)c1cccc(-c2cc(C(=O)NC3CCN(C)CC3)c(C)c3[nH]c4ncc(C)cc4c23)c1 [TAK-901, reference compound]
property: Percent viability
observed-measurement: 121.9

molecule: O=C(Nc1cccc(Cl)c1)Nc1ncc(CCNc2ncnc3ccsc23)s1 [SNS-314, reference compound]
property: Percent viability
observed-measurement: 100.0

----------
Consider the following compounds and their measured HEK293T_AUC readings.
# System: HEK293T cells
# measurement-description: qHTS cell viability (CellTiter-Glo, 72 h; primary screen), control cell line
# Assay type: cell-based, human
Counter-ions that a name gives are not always drawn.

compound: CC(N[C@H]1CCCC[C@@H]1NC(=O)c1ccc(Cl)cc1)c1cccc2ccccc12 (some centres unmarked) [Calhex-231]
HEK293T_AUC: 469.437
//
compound: CN(C)CCc1c[nH]c2ccc(O)cc12 [Bufotenine]
HEK293T_AUC: 488.2
//
compound: CCCCCCCCCCCC[N+](C)(C)CCOc1ccccc1 [Domiphen bromide]
HEK293T_AUC: 413.225
//
compound: CC(C)(O)/C=C/C(=O)[C@](C)(O)[C@H]1[C@H](O)C[C@@]2(C)[C@@H]3CC=C4[C@@H](C=C(O)C(=O)C4(C)C)[C@]3(C)C(=O)C[C@]12C [Cucurbitacin I]
HEK293T_AUC: 307.458
//
compound: C=CCC1([C@H](C)CCC)C(=O)NC(=O)NC1=O [S-(-)-Secobarbital]
HEK293T_AUC: 485.529
//
compound: COc1cc(CCN)c(OC)cc1Br.Cl
HEK293T_AUC: 422.838
//
compound: CC(C)(C)CC(C)(C)c1ccc(OCCOCC[N+](C)(C)Cc2ccccc2)cc1 [Benzethonium chloride]
HEK293T_AUC: 369.337
//
compound: COc1cc(NC(C)CCCN)c2ncccc2c1 (centres unmarked) [Primaquine diphosphate]
HEK293T_AUC: 455.709
//
compound: CN(C)C(=O)Nc1ccc(Cl)c(Cl)c1 [Diuron]
HEK293T_AUC: 497.019
//
compound: CCC(=O)OC1(c2ccccc2)CCN(C)CC1.Cl
HEK293T_AUC: 479.823
//
compound: Cc1ccc([N+](=O)[O-])[c]2c1[O][Hg]2 [Nitromersol]
HEK293T_AUC: 310.441
//
compound: C[C@H](CN1CCOCC1)C(C(=O)N1CCCC1)(c1ccccc1)c1ccccc1.O=C(O)C(O)C(O)C(=O)O [Dextromoramide tartrate]
HEK293T_AUC: 429.542
//
compound: CCN(CC)CCc1c[nH]c2ccccc12.O=C(O)/C=C/C(=O)O [N,N-Diethyltryptamine fumarate]
HEK293T_AUC: 459.326
//
compound: CC(O)C(=O)O.CCOc1ccc2nc3cc(N)ccc3c(N)c2c1.O [Ethacridine lactate hydrate]
HEK293T_AUC: 374.537
//
compound: CCCN(CCC)CCc1c[nH]c2ccccc12.Cl [N,N-Dipropyltryptamine hydrochloride]
HEK293T_AUC: 447.306
//
compound: CC(C)CN(C[C@@H](O)[C@H](Cc1ccccc1)NC(=O)O[C@H]1CO[C@H]2OCC[C@H]21)S(=O)(=O)c1ccc(N)cc1 [Darunavir]
HEK293T_AUC: 472.283
//
compound: CC(Cc1ccccc1)NCCn1cnc2c1c(=O)n(C)c(=O)n2C (centres unmarked) [Fenethylline hydrochloride]
HEK293T_AUC: 471.885
